System: K-562 leukemia
procedure_details: NCI tumour cell line growth inhibition, 48 h; in the data active = GI50 below about 0.43 µM; inactive = the rest
Labels: Yes = active, No = inactive

{"columns": ["compound", "target_of_assay", "category"],
 "data": [
  ["C/C(O)=C(\\C#N)C(=O)Nc1ccc(C(F)(F)F)cc1", "K-562 leukemia", "No"],
  ["CC1=C(C(=O)Nc2cc(Cl)c3[nH]ncc3c2)C(c2ccc(C(F)(F)F)cc2)CC(=O)N1 (stereo unspecified)", "K-562 leukemia", "No"],
  ["Cc1ccc(NC(=O)CSc2nnc3n(Cc4ccccc4)c(=O)c4c(C)c(C(N)=O)sc4n23)cc1", "K-562 leukemia", "No"],
  ["COc1cc(-c2csc(NC(=O)Nc3ccc(C(F)(F)F)cc3)n2)cc(OC)c1OC", "K-562 leukemia", "No"],
  ["Clc1ccccc1CNc1c2ccccc2nc2ccccc12", "K-562 leukemia", "No"],
  ["CC(=[N-])N1CCC[C@@H](Nc2c3ccccc3nc3ccccc23)C1.[Cl][Pt].[NH-]CCC[NH-]", "K-562 leukemia", "Yes"],
  ["Cc1cc2c(C(N)=O)c(N)n(-c3c(C)ccc(O)c3C)c2nc1C", "K-562 leukemia", "No"],
  ["NS(=O)(=O)c1ccc(N(/C=C/C(=O)C(F)(F)F)Cc2ccc(Cl)cc2)cc1", "K-562 leukemia", "No"],
  ["CC(=O)[CH-]C(=O)c1ccccc1.CC(=O)[CH-]C(=O)c1ccccc1.Cc1cc([O-])ccc1Cl.Cc1cc([O-])ccc1Cl.[Ti+4]", "K-562 leukemia", "No"],
  ["OCCNc1nc(Nc2ccc(Cl)c(Cl)c2)nc2ccccc12", "K-562 leukemia", "No"],
  ["O=C(O)c1c(=O)cccc2ssc12", "K-562 leukemia", "No"]
]}
